Kindly state IC50 for each of the entries shown.
Target: T1, blood platelet receptor glycoprotein Ib-IX-V complex (GPIb) (human, UniProt P07359 17-652; P13224 26-206; P14770 17-177; P40197 17-560)
T1 construct: whole, on cells; also called GPIb complex; GPIb receptor
T1 sequence (P07359 17-652, chain 1 of 4): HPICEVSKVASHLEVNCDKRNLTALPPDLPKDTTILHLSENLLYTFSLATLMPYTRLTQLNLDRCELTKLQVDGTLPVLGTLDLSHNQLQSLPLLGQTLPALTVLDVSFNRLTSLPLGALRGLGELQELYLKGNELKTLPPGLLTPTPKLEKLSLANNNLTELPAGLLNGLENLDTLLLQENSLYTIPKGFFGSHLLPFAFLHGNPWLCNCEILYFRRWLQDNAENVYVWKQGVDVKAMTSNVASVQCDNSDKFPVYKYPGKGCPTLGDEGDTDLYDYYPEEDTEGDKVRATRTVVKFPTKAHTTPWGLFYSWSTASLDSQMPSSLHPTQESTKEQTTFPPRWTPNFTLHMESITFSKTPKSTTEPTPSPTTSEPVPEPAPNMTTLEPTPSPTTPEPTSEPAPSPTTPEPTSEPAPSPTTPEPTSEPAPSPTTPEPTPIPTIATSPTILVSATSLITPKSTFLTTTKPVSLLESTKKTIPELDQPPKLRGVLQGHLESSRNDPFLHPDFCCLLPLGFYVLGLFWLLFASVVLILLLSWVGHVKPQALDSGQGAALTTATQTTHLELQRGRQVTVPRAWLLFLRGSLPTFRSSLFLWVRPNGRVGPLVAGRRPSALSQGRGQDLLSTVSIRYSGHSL
T1 sequence (P13224 26-206, chain 2 of 4): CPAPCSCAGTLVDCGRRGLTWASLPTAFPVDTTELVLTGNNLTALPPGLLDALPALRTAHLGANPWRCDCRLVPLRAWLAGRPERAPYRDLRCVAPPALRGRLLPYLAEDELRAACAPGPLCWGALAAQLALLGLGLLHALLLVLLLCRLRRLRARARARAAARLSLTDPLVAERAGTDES
T1 sequence (P14770 17-177, chain 3 of 4): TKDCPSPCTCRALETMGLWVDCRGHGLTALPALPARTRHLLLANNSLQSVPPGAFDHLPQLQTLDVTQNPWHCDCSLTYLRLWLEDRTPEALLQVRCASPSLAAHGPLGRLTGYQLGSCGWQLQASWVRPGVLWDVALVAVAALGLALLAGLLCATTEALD
T1 sequence (P40197 17-560, chain 4 of 4): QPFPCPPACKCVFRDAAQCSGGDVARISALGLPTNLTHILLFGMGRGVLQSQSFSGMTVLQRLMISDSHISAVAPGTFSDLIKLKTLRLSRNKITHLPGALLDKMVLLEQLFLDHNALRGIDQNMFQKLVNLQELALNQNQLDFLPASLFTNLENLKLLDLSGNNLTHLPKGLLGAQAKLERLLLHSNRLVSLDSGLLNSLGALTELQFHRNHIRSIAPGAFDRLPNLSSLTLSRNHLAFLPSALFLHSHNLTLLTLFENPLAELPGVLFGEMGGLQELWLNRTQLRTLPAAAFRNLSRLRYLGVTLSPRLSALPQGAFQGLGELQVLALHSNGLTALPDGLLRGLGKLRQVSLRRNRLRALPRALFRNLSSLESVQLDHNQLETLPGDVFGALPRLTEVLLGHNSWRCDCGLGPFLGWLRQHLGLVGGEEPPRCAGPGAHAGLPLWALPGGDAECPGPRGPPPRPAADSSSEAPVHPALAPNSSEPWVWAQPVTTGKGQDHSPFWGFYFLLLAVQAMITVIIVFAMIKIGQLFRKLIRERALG
Test: inhibition of static adhesion of human platelets to coated vWF-A1; grade B = IC50 between 1 µM and 10 µM
Non-standard residues stand in square brackets, D forms with d. Ahp = NCCCCCCC(=O)O

Entry under test: cyclo(LHNL[Ahp]DERMA) (SMILES CSCC[C@@H]1NC(=O)[C@H](CCCNC(=N)N)NC(=O)[C@H](CCC(=O)O)NC(=O)[C@H](CC(=O)O)NC(=O)CCCCCCNC(=O)[C@H](CC(C)C)NC(=O)[C@H](CC(N)=O)NC(=O)[C@H](Cc2c[nH]cn2)NC(=O)[C@H](CC(C)C)NC(=O)[C@H](C)NC1=O) [Cyclo[Leu-His-Asn-Leu-NH-(CH2)6-CO-Asp-Glu-Arg-Met-Ala]] . Its IC50 was 1 to 10 µM

Just so you know, measured IC50 for cyclo(LHNL[Ahp]TERMR) (SMILES CSCC[C@@H]1NC(=O)[C@H](CCCNC(=N)N)NC(=O)[C@H](CCC(=O)O)NC(=O)[C@H]([C@@H](C)O)NC(=O)CCCCCCNC(=O)[C@H](CC(C)C)NC(=O)[C@H](CC(N)=O)NC(=O)[C@H](Cc2c[nH]cn2)NC(=O)[C@H](CC(C)C)NC(=O)[C@H](CCCNC(=N)N)NC1=O) [Cyclo[Leu-His-Asn-Leu-NH-(CH2)6-CO-Thr-Glu-Arg-Met-Arg]] came out at 1 to 10 µM
